Test system: LXFL 529 NSCLC
ASSAY DETAILS: NCI tumour cell line growth inhibition, 48 h
Assign TGI to each entry below.
Answers are plain numbers, in µM.

Take a look at these entries with their results.
molecule=C[CH2][Sn]([CH2]C)([O]C(=O)c1ccccc1F)[O]C(=O)c1ccccc1F observable=TGI assay_result=24.2
molecule="O=S1c2ccccc2N=C(c2cccc3ccccc23)CC1c1cccc2ccccc12 (centres undefined)" observable=TGI assay_result=33.6
molecule="CCC[CH2][Sn]1([CH2]CCC)[O]CC(CN2CCCCC2)[O]1 (centres undefined)" observable=TGI assay_result=0.263

Okay, now this molecule:
Using the record for O=C(CCc1nnc2s/c(=C\c3ccccc3[N+](=O)[O-])c(=O)n12)Nc1cc(Cl)c(Cl)cc1Cl , report its TGI.
53.8

---

Tested on: KM12 colon
ASSAY DETAILS: NCI tumour cell line growth inhibition, 48 h
OBSERVABLE: TGI (µM)
One number for each entry, in µM.

Known TGI results, listed for orientation:
smiles_representation=Cc1ccc(N=C2SC(=S)N(CCC[N+](C)(C)C)C2=Nc2ccc(C)cc2)cc1 system_under_test="KM12 colon" observable=TGI unit=µM assay_result=50.1
smiles_representation=O=C(Nc1ccc2[nH]c3ccccc3c2c1)c1ccccc1Cl system_under_test="KM12 colon" observable=TGI unit=µM assay_result=11.6

For the next question, use this compound.
For the compound CN(CCCN=C=S)CCCN1c2ccccc2CCc2ccccc21 , what TGI is on record?
3.5

---

For each of the compounds below, state its TGI.
System: NCI-H522 lung
ASSAY DETAILS: NCI tumour cell line growth inhibition, 48 h
Give bare numbers, in µM.

compound="C=C1CC(C)(COc2ccc3c(C)c(C)c(=O)oc3c2C)OC1=O (stereo unspecified)" observable=TGI assay_result=4.28
compound=CCNCCCNc1c2ccccc2nc2ccccc12 observable=TGI assay_result=0.7
compound=COc1nc(N)c(N=O)c(OCc2ccccc2)n1 observable=TGI assay_result=3.59
compound=CC(C)(C)c1ccc(O)c(CN(Cc2c(O)ccc3ccccc23)C2CCCCC2)c1 observable=TGI assay_result=28.9
compound=COc1cc(C(c2c(O)c3ccccc3oc2=O)c2c(O)c3ccccc3oc2=O)ccc1O observable=TGI assay_result=43.2

Fill blank: measured TGI of the compound O=C1C[C@@H](Sc2ccccc2)C2(OCCO2)C2ON3CCCC[C@H]3[C@H]12 (stereo partly specified) is ____.
6.93

---

System: MOLT-4 leukemia
ASSAY DETAILS: NCI tumour cell line growth inhibition, 48 h
Please provide measured TGI for the entries that follow.

Provide each entry's TGI from the list below.
1. CC1CC/C(=C\c2ccc(F)cc2)C2=C1C(c1ccc(F)cc1)n1c(s/c(=C/c3cccc(Br)c3)c1=O)=N2 (centres undefined)
2. O=C(CC(=O)n1nc(-c2ccccc2)c(N=Nc2ccccc2Cl)c1-c1ccccc1)Nc1ccc(Cl)cc1
3. C[C@]12CC[C@@H]3c4cc(Br)c(O)c(Br)c4CC[C@H]3[C@@H]1CC(Br)C2=O (some centres undefined)
4. CCOC(=O)C(COS(C)(=O)=O)(COS(C)(=O)=O)C(=O)OCC
5. CCOC(=O)C1=c2[nH]c3cccc4cccc(c43)n2C(=O)CC1
6. O=C(/C=C/c1ccc2ccccc2c1)NCc1ccc(C(=O)NCc2ccccc2)cc1

["> 100 µM", "> 100 µM", "9.36 µM", "> 100 µM", "> 100 µM", "> 100 µM"]

---

System: HCT-15 colon
ASSAY DETAILS: NCI tumour cell line growth inhibition, 48 h
OBSERVABLE: TGI (µM)
Numbers only, in µM.

compound=C=CC(=O)N1CCN(CCCn2c(=O)c(-c3c(Cl)c(OC)cc(OC)c3Cl)cc3cnc(NC)nc32)CC1 assay_result=15
compound=COC(=O)c1oc([N+](=O)[O-])c(Cl)c1Cl assay_result=18.2
compound=CC(C)(C)c1ccc(O)c(CN(Cc2c(O)ccc3ccccc23)C2CCCCC2)c1 assay_result=31

// moving on: another record for TGI
Which TGI reading was recorded for the compound O=C(C1OC1c1ccc(F)cc1)C12CC3CC(CC(C3)C1)C2 (centres undefined) ?
56.7

---

System: LOX IMVI melanoma
ASSAY DETAILS: NCI tumour cell line growth inhibition, 48 h
OBSERVABLE: TGI (µM)
Numbers only, in µM.

# return TGI for each item in the list
1. CC1CCC2C(C)(C)CC3(C)CCC1C23O (stereo not given)
2. Clc1ccc(COc2ccccc2/C=N/c2c(-c3ccco3)nc3ccccn23)c(Cl)c1
3. O=C(/C=C/c1ccc(O)c(O)c1)OCCCOC(=O)/C=C/c1ccc(O)c(O)c1

[28.9, 35.5, 69.6]

// for each compound below, give its TGI
1. CCC(=O)Nc1ccc(NCC(=O)Nc2ccc(Cl)cc2)cc1
2. O=C1C=CC(O)(C#CCO)C=C1
3. COC1=C(OC)C(=O)C(CCCCCCCCCC[P+](c2ccccc2)(c2ccccc2)c2ccccc2)=C(C)C1=O
4. C=C1CC(C)(COc2ccc3c(C)c(C)c(=O)oc3c2C)OC1=O (stereo not given)
5. CC[N+](CC)=c1cc2oc3cc(N(C)C)ccc3nc-2cc1C
6. COc1cc(-c2nccn2-c2ccc3ccccc3c2)cc(OC)c1OC
7. COc1cccc2[nH]c3c4c(c5c(c3c12)C(=O)N(CN1CCN(C)CC1)C5=O)CCC4
8. O=S1c2ccccc2N=C(c2cccc3ccccc23)CC1c1cccc2ccccc12 (stereo not given)

1: 27.4; 2: 23.3; 3: 1.55; 4: 2.91; 5: 12.3; 6: 19; 7: 40.7; 8: 27.9

Could you share which TGI value was measured for COc1ccc(-c2cn[nH]c2-c2cc(OC)c(OC)c(OC)c2)cc1OCc1ccccc1 ?
13.6

---

Field: TGI. Provide a value for each of the compounds that follow.
Test system: ACHN renal
ASSAY DETAILS: NCI tumour cell line growth inhibition, 48 h

Need TGI for each of these compounds.
1. OC1CCCN(C2(c3cccs3)CCCCC2)C1 (stereo unspecified)
2. C[C@]12CC[C@@H]3c4ccc(O)cc4CC[C@H]3[C@@H]1CC[C@@H]2NS(=O)(=O)c1ccc(Cl)cc1
3. COC(=O)Cc1cc2c(cc1C(=O)c1ccc(N)cc1)OCO2
4. Clc1ccc(C(Cn2ccnc2)OCc2ccsc2Cl)c(Cl)c1 (stereo unspecified)
5. CCOc1cc(F)c([N+](=O)[O-])cc1[N+](=O)[O-]
6. COc1cc(C(c2c(O)c3ccccc3oc2=O)c2c(O)c3ccccc3oc2=O)ccc1O

1: > 100 µM; 2: 12.9 µM; 3: > 100 µM; 4: 15 µM; 5: 4.81 µM; 6: 40.2 µM

---

Tested on: 786-0 renal
ASSAY DETAILS: NCI tumour cell line growth inhibition, 48 h; in the data active = GI50 below about 0.43 µM; inactive = the rest
Hi! Could you answer with just one of these? 1 (active), -1 (inactive)

Example entries and their recorded answers appear below.
compound=O=C(c1ccco1)c1nc2ccc(Cl)cc2[n+]([O-])c1C(F)(F)F system_under_test="786-0 renal" category_label=-1
compound="c1cc[n+](C2c3ccccc3C([n+]3ccccc3)c3ccccc32)cc1 (configuration not stated)" system_under_test="786-0 renal" category_label=-1
compound=CCCC[C@H](NC(=O)[C@H]1CCCCN1C)C(=O)N(C)[C@H](C[C@@H](OC(C)=O)c1nc(C(=O)N[C@@H](Cc2ccccc2)C[C@H](C)C(=O)OCC)cs1)C(C)C system_under_test="786-0 renal" category_label=1
compound=COc1ccc2[nH]c3c(C)c4ccncc4c(C)c3c2c1 system_under_test="786-0 renal" category_label=1
compound=COc1cc(-c2nccn2-c2ccc3ccccc3c2)cc(OC)c1OC system_under_test="786-0 renal" category_label=1

Please share the test call associated with Clc1ccc(C(Cn2ccnc2)OCc2ccsc2Cl)c(Cl)c1 (configuration not stated) .
-1

For O=C(Nc1ncc(Cc2ccccc2)s1)c1sc2ccccc2c1Cl , what call appears in the results of this test?
-1

Per the records of this test, what outcome belongs to COc1ccc(-c2cn[nH]c2-c2cc(OC)c(OC)c(OC)c2)cc1OCc1ccccc1 ?
-1

Lab log entry: CC1=C(C(=O)Nc2ccc(F)c(Cl)c2)C(c2cccc(Cl)c2)NC(=S)N1 (configuration not stated) — outcome as called in the assay?
-1

How was CSc1nc(-c2cc3ccccc3o2)cc(-c2ccc(Cl)cc2)c1C#N classified in this test?
-1

What is the recorded call for this compound in the test? O=C1/C=C/[C@@H](O)[C@@H]2C[C@@H](O)C[C@H]2/C=C/CCC[C@H](CCOCc2ccccc2)O1
1

Dear colleague, could you share the recorded outcome for C[CH2][Sn]([CH2]C)([O]C(=O)c1ccccc1F)[O]C(=O)c1ccccc1F when you have a moment?
-1

---

System: NCI/ADR-RES ovarian
ASSAY DETAILS: NCI tumour cell line growth inhibition, 48 h
OBSERVABLE: TGI (µM)
Answers are plain numbers, in µM.

// known answers, use as guide
smiles_representation=CN(C)CCn1c(=O)c2ccc(NCCCN(C)CCCNc3ccc4c(=O)n(CCN(C)C)c(=O)n5c6ccccc6c(=O)c3c45)c3c(=O)c4ccccc4n(c1=O)c23 assay_result=1.48
smiles_representation=COC1=C(C)C(=O)C2=C(C1=O)[C@@H]1[C@@H]3Cc4c(OC(=O)CO)c(C)c(OC)c(O)c4[C@H](CNC(=O)C(C)=O)N3[C@@H](C#N)[C@H](C2)N1C assay_result=17.1
smiles_representation=CC1(C)Cc2c(cnn2-c2ccc(C(F)(F)F)cc2)-c2nc(-c3ccc(O)cc3)[nH]c21 assay_result=45

--- query ---
Which value of TGI has been reported for O=C1/C(=C/c2ccccc2)CN(C(=O)CCN2CCC(=NO)CC2)C/C1=C\c1ccccc1 in the records?
8.68
